viability at 28.5 h, 10 µM listing for selected compounds.
assay: in vitro; details: human, hela cells, % viability
value kind: viability at 28.5 h, 10 µM (%)

- compound: "O=C(/C=C/c1ccc2c(c1)OCO2)N1CCCC2(CCN(C(=O)c3ccoc3)C2)C1 (stereo not drawn)"
  value kind: "viability at 28.5 h, 10 µM"
  unit annotation: "%"
  meas value: 92.3
- compound: "CC(C)NC(=O)NC[C@H]1C[C@@H]2CC[N@]1C[C@@H]2CN1CCN(c2ccccn2)CC1"
  value kind: "viability at 28.5 h, 10 µM"
  unit annotation: "%"
  meas value: 105
- compound: "CCCNc1nccnc1-c1ccc(C(=O)N2CCN(C)CC2)cc1"
  value kind: "viability at 28.5 h, 10 µM"
  unit annotation: "%"
  meas value: 110
- compound: "Cn1cc(CC2CCN(Cc3ccncc3)C2)cn1 (stereo not drawn)"
  value kind: "viability at 28.5 h, 10 µM"
  unit annotation: "%"
  meas value: 107
- compound: "CCc1nn(CC(=O)N2CCCCC2)c(=O)c2cc3oc(C)cc3n12"
  value kind: "viability at 28.5 h, 10 µM"
  unit annotation: "%"
  meas value: 104
- compound: "COc1cc(-c2cncc(NC(C)CCCC(C)(C)O)n2)cc(OC)c1OC (stereo not drawn)"
  value kind: "viability at 28.5 h, 10 µM"
  unit annotation: "%"
  meas value: 102
- compound: "Cc1ccc(O)c(NC(=O)c2nc3ncccn3n2)c1"
  value kind: "viability at 28.5 h, 10 µM"
  unit annotation: "%"
  meas value: 99.6
- compound: "CCC(C)NC(=O)CSc1nnc(-c2cccs2)n1CC (stereo not drawn)"
  value kind: "viability at 28.5 h, 10 µM"
  unit annotation: "%"
  meas value: 86.3
- compound: "C(=N\\N1CCN(Cc2cccc3ccccc23)CC1)/c1ccncc1"
  value kind: "viability at 28.5 h, 10 µM"
  unit annotation: "%"
  meas value: 94.6
- compound: "COc1cncc(-c2cc(Nc3cc(OC)c(OC)cc3C)ncn2)c1"
  value kind: "viability at 28.5 h, 10 µM"
  unit annotation: "%"
  meas value: 84.9
- compound: "COc1cccc([C@H]2CC[C@H](N(CCN(C)C)C(=O)Nc3cc(F)ccc3F)CC2)c1OC"
  value kind: "viability at 28.5 h, 10 µM"
  unit annotation: "%"
  meas value: 113
- compound: "O=C(O)c1[nH]c(=O)[nH]c(=O)c1CN1CCCCC1"
  value kind: "viability at 28.5 h, 10 µM"
  unit annotation: "%"
  meas value: 96.8
- compound: "Cc1ccc(S(=O)(=O)NCCCO)cc1C(=O)O"
  value kind: "viability at 28.5 h, 10 µM"
  unit annotation: "%"
  meas value: 89.7
- compound: "C/C(=N\\NC(=O)c1ccccc1O)c1ccc(NC(=O)c2ccc(C)cc2)cc1"
  value kind: "viability at 28.5 h, 10 µM"
  unit annotation: "%"
  meas value: 84.7
- compound: "COc1ccc(OC)c(C(=O)N2CCNC(=O)C2Cc2ccc(-c3cccs3)cc2)c1 (stereo not drawn)"
  value kind: "viability at 28.5 h, 10 µM"
  unit annotation: "%"
  meas value: 111

Each recorded value in this set is attributed to paper PMC12040169.
